Values from paper PMC11947346

Experiment: in vivo
Details: Balb/c nu/nu, mouse, tumour / kidneys, 48 pmol, total radioactivity
measure: tissue to tissue ratio at 2 h

Fill in the blank: the reported tissue to tissue ratio at 2 h of CC1=NNC(c2ccc(CNC(=O)c3ccc(F)nc3)cc2)=C2CCC[C@H](OC(=O)NCCOCCOCCC(=O)N[C@H](Cc3ccccc3)C(=O)N[C@@H](CCC(N)=O)C(=O)N[C@@H](Cc3c[nH]c4ccccc34)C(=O)N[C@@H](C)C(=O)N[C@H](C(=O)NCC(=O)N[C@@H](Cc3c[nH]cn3)C(=O)N[C@@H](CC(C)C)[C@@H](O)CC(=O)N[C@@H](CC(C)C)C(N)=O)C(C)C)CCC12 (stereo partly shown) is ____. 1.6
